TEST_SYSTEM: human GCG receptor (human, UniProt P47871 26-477)
Sequence (P47871 26-477): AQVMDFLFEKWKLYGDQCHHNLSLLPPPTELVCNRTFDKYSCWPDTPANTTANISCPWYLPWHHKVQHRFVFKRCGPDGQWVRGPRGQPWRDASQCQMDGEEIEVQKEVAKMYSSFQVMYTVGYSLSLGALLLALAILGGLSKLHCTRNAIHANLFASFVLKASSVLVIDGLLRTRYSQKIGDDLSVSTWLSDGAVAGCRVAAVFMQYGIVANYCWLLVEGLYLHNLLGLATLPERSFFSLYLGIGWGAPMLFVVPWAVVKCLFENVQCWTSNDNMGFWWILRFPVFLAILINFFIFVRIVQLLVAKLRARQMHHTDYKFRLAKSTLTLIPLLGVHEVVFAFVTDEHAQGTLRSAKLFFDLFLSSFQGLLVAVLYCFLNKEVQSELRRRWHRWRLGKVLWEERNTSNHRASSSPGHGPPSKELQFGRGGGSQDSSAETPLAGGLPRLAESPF
RUN_DESCRIPTION: cell-based or functional assay
Bridge positions count the residues as written; N and C are the ends. Square brackets hold non-standard residues; d marks the D form. Ends that are not written are not given here. * marks the point of attachment. Acetyl(2-(4-imidazolyl)) = O=C(Cc1c[nH]cn1)*; Aib = CC(C)(N)C(=O)O
QUANTITY_KIND: In vitro activity (%) compared with native peptide, vs Glucagon
Note: unit % is implicit; provide only the numeric part.

{"BINDER": "H[Aib]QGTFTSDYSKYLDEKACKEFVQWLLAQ (bridge 16-20) [triple agonist of SEQ ID NO: 31]", "UNIT_STRING": "%", "MEASURED_RESULT": 2.2}

Please find the next binder below.
Request the reported In vitro activity (%) compared with native peptide, vs Glucagon associated with {Acetyl(2-(4-imidazolyl))}-[Aib]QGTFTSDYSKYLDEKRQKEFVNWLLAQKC (bridge 15-19; numbers in words are those of the source; also: ring between positions 16 and 20, type not given here) [triple agonist of SEQ ID NO: 93]
0.3
